# Target entity: T1, hFc tagged human LAG3 ECD recombinant protein (human, UniProt P18627 23-450)
# T1 construct: range 23-450; also called biotin labelled hFc tagged human LAG3 ECD; not shown: human IgG Fc tag
# T1 sequence (looked up): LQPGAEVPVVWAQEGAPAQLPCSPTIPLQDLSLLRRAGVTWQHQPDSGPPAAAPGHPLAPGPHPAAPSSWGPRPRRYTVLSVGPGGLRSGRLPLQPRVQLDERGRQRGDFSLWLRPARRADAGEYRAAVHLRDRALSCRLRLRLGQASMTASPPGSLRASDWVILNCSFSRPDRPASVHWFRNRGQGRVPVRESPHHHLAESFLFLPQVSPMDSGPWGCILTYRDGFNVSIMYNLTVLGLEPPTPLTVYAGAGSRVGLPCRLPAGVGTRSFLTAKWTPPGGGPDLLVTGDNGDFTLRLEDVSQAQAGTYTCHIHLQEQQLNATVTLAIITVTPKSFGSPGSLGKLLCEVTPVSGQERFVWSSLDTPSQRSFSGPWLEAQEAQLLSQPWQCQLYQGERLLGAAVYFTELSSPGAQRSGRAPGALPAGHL
# Assay summary: competitive FACS: hFc-LAG3 ECD binding to Raji cells (MHC II)
# Method: Competitive FACS assay was used to determine whether the purified hybridoma antibodies can block LAG3 and MHC II interaction. […] After washing, dye labeled anti-human Fc 2nd antibody (Sigma) was added and incubated at 37° C. for 1 hour. Fluorescence intensity was detected.
So I've got a bunch of binders here, and I need their pIC50 values.
The value called pIC50 is obtained by taking minus log10 of the concentration in mol/L.

Short answer for Antibody 033 (antibody, V domains shown, mouse hybridoma antibody) VH: EVQLQQSGAELVRPGASVKLSCTASDFNIKDDYIHWVKQRPEQGLEWIGWIDLENGDTEYASKFQGKATITADTSSNTAYLQLSSLTSEDTAVYYCTTKGSHWGQGTLVTVSA VL: DVVMTQIPLSLPVSLGDQASISCRSSQSLVYSNGNTYLNWYLQKPGQSPKLLIHKVSNRFSGVPDRFSGSGSGTDFTLKISRVEAEDLGVYFCSQSTHVPYTFGGGTKLEIR : pIC50 was 8.32

Short answer for Antibody 039 (antibody, V domains shown, mouse hybridoma antibody) VH: EFQLQQSGPELVKPGASVKISCKASGYSFTDYNLNWVRQSNGKSLEWIGLVDPIYGTIRYNQNFKDKATLTVDQSSSTAYMQLNSLTSEDSAVYYCASIMTAVRYFDHWGQGTTLTVSS VL: DVLMTQTPLFLPVSLGDQASISCRSSLNIVHSDGNTYLEWYLQKPGQSPKLLIYKVSNRFSGVPDRFSGSGSGTDFTLKISGVEAEDLGVYYCFQGSHVPPTFGGGTKLEIK : pIC50 was 8.28

Short answer for Antibody 029 (antibody, V domains shown, mouse hybridoma antibody) VH: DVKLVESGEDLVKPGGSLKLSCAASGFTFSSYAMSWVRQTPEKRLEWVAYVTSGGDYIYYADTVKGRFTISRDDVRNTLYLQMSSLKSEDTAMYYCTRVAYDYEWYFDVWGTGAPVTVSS VL: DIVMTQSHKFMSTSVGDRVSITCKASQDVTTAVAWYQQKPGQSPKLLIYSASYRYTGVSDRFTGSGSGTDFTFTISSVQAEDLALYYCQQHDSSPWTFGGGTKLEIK : pIC50 was 8.34
